- target.system: RNA-directed RNA polymerase (Hepacivirus hominis)
- procedure.summary: Inhibition of Hepatitis C virus NS5B RNA-dependent RNA polymerase
- test.context: read-out: IC50
pIC50: −log10 of the molar value.
experimental.readout: pIC50

Solved cases (8 shown):
[[record]]
structure_smiles = "N#Cc1c(-c2ccc(Br)cc2)nc(SCc2cccc([N+](=O)[O-])c2)[nH]c1=O"
target_system = "RNA-directed RNA polymerase (Hepacivirus hominis)"
reported_measurement = 4.85

[[record]]
structure_smiles = "CC(C)c1ccc(-c2nc(SCc3ccccc3Br)[nH]c(=O)c2C#N)cc1"
target_system = "RNA-directed RNA polymerase (Hepacivirus hominis)"
reported_measurement = 5.42

[[record]]
structure_smiles = "COc1cc(CSc2nc(-c3cccc(C(F)(F)F)c3)c(C#N)c(=O)[nH]2)cc(OC)c1"
target_system = "RNA-directed RNA polymerase (Hepacivirus hominis)"
reported_measurement = 4.96

[[record]]
structure_smiles = "COc1cc(CSc2nc(-c3ccc(F)cc3F)c(C#N)c(=O)[nH]2)cc(OC)c1"
target_system = "RNA-directed RNA polymerase (Hepacivirus hominis)"
reported_measurement = 4.72

[[record]]
structure_smiles = "CCCCCSc1nc(-c2cccc(C)c2)c(C#N)c(=O)[nH]1"
target_system = "RNA-directed RNA polymerase (Hepacivirus hominis)"
reported_measurement = 4.74

[[record]]
structure_smiles = "Cc1cccc(CSc2nc(-c3cccc(C)c3)c(C#N)c(=O)[nH]2)c1"
target_system = "RNA-directed RNA polymerase (Hepacivirus hominis)"
reported_measurement = 4.66

[[record]]
structure_smiles = "Cc1cccc(CSc2nc(-c3cc(Cl)cc(Cl)c3)c(C#N)c(=O)[nH]2)c1"
target_system = "RNA-directed RNA polymerase (Hepacivirus hominis)"
reported_measurement = 4.54

[[record]]
structure_smiles = "Cc1cccc(CSc2nc(-c3cc(F)cc(F)c3)c(C#N)c(=O)[nH]2)c1"
target_system = "RNA-directed RNA polymerase (Hepacivirus hominis)"
reported_measurement = 4.57


I: CCCCCSc1nc(-c2ccccc2C(F)(F)F)c(C#N)c(=O)[nH]1
II: COc1cc(CSc2nc(-c3ccc(Cl)cc3Cl)c(C#N)c(=O)[nH]2)cc(OC)c1
Inquiry: Compare I and II by numeric pIC50 and name the larger one. I would appreciate it if you answered with the label of your choice.
Reply text: I
(I: 4.70, II: 4.47)

----------
- target.system: RNA-directed RNA polymerase (Hepacivirus hominis)
- procedure.summary: Inhibition of Hepatitis C virus NS5B RNA-dependent RNA polymerase
- test.context: read-out: IC50
experimental.readout: IC50 (µM)

[[record]]
compound = "N#Cc1c(-c2ccc(Br)cc2)nc(SCc2ccccc2Br)[nH]c1=O"
reported_measurement = 10

[[record]]
compound = "CCCCCSc1nc(-c2ccc(F)cc2F)c(C#N)c(=O)[nH]1"
reported_measurement = 12


a: N#Cc1c(-c2ccc(Br)cc2)nc(SCCC(=O)Oc2ccccc2)[nH]c1=O
b: CC(C)c1ccc(-c2nc(SCC3CCCCO3)[nH]c(=O)c2C#N)cc1 (stereo not given)
c: Cc1cccc(CSc2nc(-c3ccc(Br)cc3)c(C#N)c(=O)[nH]2)c1
Inquiry: Please list these compounds in decreasing order of IC50. Put the labels in the requested order and write them down.
Reply text: a, b, c
(a: 30 µM, b: 17 µM, c: 11 µM)

----------
- target.system: RNA-directed RNA polymerase (Hepacivirus hominis, UniProt O39930)
- Sequence (O39930 whole entry): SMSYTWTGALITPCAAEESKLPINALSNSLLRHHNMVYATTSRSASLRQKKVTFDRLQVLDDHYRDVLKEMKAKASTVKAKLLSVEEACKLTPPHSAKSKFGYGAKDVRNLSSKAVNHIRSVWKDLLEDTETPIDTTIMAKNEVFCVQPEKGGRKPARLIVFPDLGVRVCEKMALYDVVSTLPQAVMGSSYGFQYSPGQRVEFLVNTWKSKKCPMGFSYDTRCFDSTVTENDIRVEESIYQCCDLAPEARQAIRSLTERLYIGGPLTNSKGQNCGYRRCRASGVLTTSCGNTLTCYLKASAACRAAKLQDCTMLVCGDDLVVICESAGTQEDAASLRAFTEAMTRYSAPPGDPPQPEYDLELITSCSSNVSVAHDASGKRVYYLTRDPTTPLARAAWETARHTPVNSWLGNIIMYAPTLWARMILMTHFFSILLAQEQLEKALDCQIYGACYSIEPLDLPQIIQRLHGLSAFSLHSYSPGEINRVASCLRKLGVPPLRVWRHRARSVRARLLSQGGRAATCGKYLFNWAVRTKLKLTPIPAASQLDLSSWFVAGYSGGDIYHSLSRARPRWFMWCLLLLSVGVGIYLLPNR
- procedure.summary: Inhibition of Hepatitis C virus NS5B RNA-dependent RNA polymerase
- test.context: read-out: IC50
experimental.readout: IC50 (µM)

Solved cases (2 shown):
[[record]]
structure_smiles = "CCCCCSc1nc(-c2cccc(C(F)(F)F)c2)c(C#N)c(=O)[nH]1"
target_system = "RNA-directed RNA polymerase (Hepacivirus hominis, UniProt O39930)"
experimental_readout = "IC50"
reported_measurement = 12

[[record]]
structure_smiles = "Cc1cccc(CSc2nc(-c3ccc(C(C)C)cc3)c(C#N)c(=O)[nH]2)c1"
target_system = "RNA-directed RNA polymerase (Hepacivirus hominis, UniProt O39930)"
experimental_readout = "IC50"
reported_measurement = 12


a: COc1cc(CSc2nc(-c3cccc(C)c3)c(C#N)c(=O)[nH]2)cc(OC)c1
b: N#Cc1c(-c2ccccc2C(F)(F)F)nc(SCc2ccc(OC(F)(F)F)cc2)[nH]c1=O
c: Cc1cccc(CSc2nc(-c3ccccc3C)c(C#N)c(=O)[nH]2)c1
Inquiry: Arrange the 3 entries by IC50 so the values rise. Put the labels in the requested order and write them down.
Reply text: b, c, a

----------
- target.system: UniProt O39930
- procedure.summary: Inhibition of Hepatitis C virus NS5B RNA-dependent RNA polymerase
- test.context: read-out: IC50
pIC50: −log10 of the molar value.
experimental.readout: pIC50

[[record]]
compound = "Cc1cccc(CSc2nc(-c3ccccc3C(F)(F)F)c(C#N)c(=O)[nH]2)c1"
reported_measurement = 4.85


P: N#Cc1c(-c2cccc(C(F)(F)F)c2)nc(SCc2cccc([N+](=O)[O-])c2)[nH]c1=O
Q: N#Cc1c(-c2ccc(Br)cc2)nc(SCc2ccccc2C(F)(F)F)[nH]c1=O
Inquiry: Compare P and Q by numeric pIC50 and name the larger one. I would appreciate it if you answered with the label of your choice.
Reply text: Q

P: CCCCCSc1nc(-c2ccc(Br)cc2)c(C#N)c(=O)[nH]1
Q: Cc1ccccc1-c1nc(SCc2cccc([N+](=O)[O-])c2)[nH]c(=O)c1C#N
Inquiry: Compare P and Q by numeric pIC50 and name the larger one. I would appreciate it if you answered with the label of your choice.
Reply text: P
(P: 4.96, Q: 4.43)

P: N#Cc1c(-c2ccc(Br)cc2)nc(SCc2ccc(OC(F)(F)F)cc2)[nH]c1=O
Q: Cc1cccc(CSc2nc(-c3cccc(C(F)(F)F)c3)c(C#N)c(=O)[nH]2)c1
Inquiry: Compare P and Q by numeric pIC50 and name the larger one. I would appreciate it if you answered with the label of your choice.
Reply text: P
(P: 5.06, Q: 4.85)

P: CC(C)c1ccc(-c2nc(SCc3ccc(OC(F)(F)F)cc3)[nH]c(=O)c2C#N)cc1
Q: COc1cc(CSc2nc(-c3ccccc3C)c(C#N)c(=O)[nH]2)cc(OC)c1
Inquiry: Compare P and Q by numeric pIC50 and name the larger one. I would appreciate it if you answered with the label of your choice.
Reply text: P

1: N#Cc1c(-c2ccc(F)cc2F)nc(SCc2ccccc2Br)[nH]c1=O
2: N#Cc1c(-c2ccc(F)cc2F)nc(SCc2cccc([N+](=O)[O-])c2)[nH]c1=O
Inquiry: Compare 1 and 2 by numeric pIC50 and name the larger one. I would appreciate it if you answered with the label of your choice.
Reply text: 1

a: Cc1cccc(-c2nc(SCc3ccc(OC(F)(F)F)cc3)[nH]c(=O)c2C#N)c1
b: COc1cc(CSc2nc(-c3cc(F)cc(F)c3)c(C#N)c(=O)[nH]2)cc(OC)c1
c: N#Cc1c(-c2ccc(Br)cc2)nc(SCC2CCCCO2)[nH]c1=O (stereo not given)
Inquiry: Arrange the 3 entries by pIC50 so the values rise. Put the labels in the requested order and write them down.
Reply text: c, b, a

P: COc1cc(CSc2nc(-c3ccccc3C(F)(F)F)c(C#N)c(=O)[nH]2)cc(OC)c1
Q: Cc1ccccc1-c1nc(SCc2ccccc2Br)[nH]c(=O)c1C#N
Inquiry: For P and Q , which recorded pIC50 is lower? I would appreciate it if you answered with the label of your choice.
Reply text: Q
(Q: 4.49, P: 4.92)

----------
- target.system: RNA-directed RNA polymerase (Hepacivirus hominis)
- procedure.summary: Inhibition of Hepatitis C virus NS5B RNA-dependent RNA polymerase
- test.context: read-out: IC50
pIC50: −log10 of the molar value.
experimental.readout: pIC50

Solved cases (5 shown):
[[record]]
structure_smiles = "COc1cc(CSc2nc(-c3ccc(C(C)C)cc3)c(C#N)c(=O)[nH]2)cc(OC)c1"
reported_measurement = 4.60

[[record]]
structure_smiles = "CCCCCSc1nc(-c2ccccc2C)c(C#N)c(=O)[nH]1"
reported_measurement = 4.74

[[record]]
structure_smiles = "N#Cc1c(-c2ccccc2C(F)(F)F)nc(SCc2ccccc2Br)[nH]c1=O"
reported_measurement = 4.68

[[record]]
structure_smiles = "Cc1cccc(CSc2nc(-c3ccc(F)cc3F)c(C#N)c(=O)[nH]2)c1"
reported_measurement = 4.24

[[record]]
structure_smiles = "Cc1cccc(CSc2nc(-c3ccc(Cl)cc3Cl)c(C#N)c(=O)[nH]2)c1"
reported_measurement = 4.48


a: CCCCCSc1nc(-c2ccc(Cl)cc2Cl)c(C#N)c(=O)[nH]1
b: CC(C)c1ccc(-c2nc(SCc3cccc([N+](=O)[O-])c3)[nH]c(=O)c2C#N)cc1
Inquiry: Compare a and b by numeric pIC50 and name the larger one. I would appreciate it if you answered with the label of your choice.
Reply text: b

I: COc1cc(CSc2nc(-c3cc(Cl)cc(Cl)c3)c(C#N)c(=O)[nH]2)cc(OC)c1
II: COc1cc(CSc2nc(-c3ccc(Br)cc3)c(C#N)c(=O)[nH]2)cc(OC)c1
Inquiry: For I and II , which recorded pIC50 is lower? I would appreciate it if you answered with the label of your choice.
Reply text: I
